cytotoxicity at 70.5 h overview
assay.summary: Human HepG2 cell viability assay in 384 well format
Assay type: toxicity, cell-based
Design: dose 125 nL, time 70.5 hour; concentration not given beside the values
assay.conditions: HepG2 cells, read-out: Inhibition
Kindly answer with a numeric value in %, unit omitted.

| smiles.text | units.text | cytotoxicity at 70.5 h |
| --- | --- | --- |
| Cc1nccn1CCCNc1nccnc1C#N | % | 44.8 |

Proceeding to the next compound to report its cytotoxicity at 70.5 h.
**Q:** Which value of cytotoxicity at 70.5 h has been reported for Cc1noc([C@]23COC[C@H]2CN(C(=O)COC2CCCC2)C3)n1 in the records?
**A:** -5.12

The origin of these recorded values is ChEMBL document CHEMBL3507680.
